target: IL-2 receptor βγ complex on human cells (pan T cells, PBMC NK cells, NK92 PD1+ cells) (human) (UniProt P14784); assay: cell-based or functional assay
Sequence (P14784 27-551, chain 1 of 2): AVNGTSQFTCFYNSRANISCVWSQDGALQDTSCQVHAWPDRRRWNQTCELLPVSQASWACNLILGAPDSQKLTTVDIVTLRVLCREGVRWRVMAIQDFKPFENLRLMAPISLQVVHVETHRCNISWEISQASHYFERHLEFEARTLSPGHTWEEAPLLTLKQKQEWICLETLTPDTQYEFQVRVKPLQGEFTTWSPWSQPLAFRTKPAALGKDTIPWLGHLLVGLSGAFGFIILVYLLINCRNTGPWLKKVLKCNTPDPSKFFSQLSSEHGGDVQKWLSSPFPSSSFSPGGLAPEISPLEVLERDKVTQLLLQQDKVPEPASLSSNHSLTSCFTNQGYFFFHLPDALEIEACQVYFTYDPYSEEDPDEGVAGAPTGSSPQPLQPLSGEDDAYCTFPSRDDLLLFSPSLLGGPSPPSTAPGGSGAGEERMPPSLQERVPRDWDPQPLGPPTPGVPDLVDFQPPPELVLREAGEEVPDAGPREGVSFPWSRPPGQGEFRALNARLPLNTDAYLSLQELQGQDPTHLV
Sequence (P31785 23-369, chain 2 of 2, further chain): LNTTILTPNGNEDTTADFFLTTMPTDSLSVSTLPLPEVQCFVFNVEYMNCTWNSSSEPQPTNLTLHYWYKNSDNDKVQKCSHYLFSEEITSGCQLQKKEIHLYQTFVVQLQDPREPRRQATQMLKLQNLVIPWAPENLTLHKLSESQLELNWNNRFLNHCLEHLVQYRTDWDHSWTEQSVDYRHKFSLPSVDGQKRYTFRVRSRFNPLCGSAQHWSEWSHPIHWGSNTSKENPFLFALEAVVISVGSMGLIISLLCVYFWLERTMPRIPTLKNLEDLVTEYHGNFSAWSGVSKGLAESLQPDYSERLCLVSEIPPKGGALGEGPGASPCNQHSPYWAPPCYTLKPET
Bridges are numbered along the chain shown (N, C = ends). Primed or numbered codes have the meaning given here. [ ]: non-standard residue; d: D form. Yn3(5) = tyrosine residue modified with an azide-capped PEG9 group (O-(PEG9-azido)-tyrosine); Ygp(5) = O-(8x polyethylene glycol-amino)-tyrosine (Tyr-PEG8-amine); Ygp = O-(8x polyethylene glycol-amino)-tyrosine; Yn3 = O-(9x polyethylene glycol-azido)-tyrosine; hSer = N[C@@H](CCO)C(=O)O; Nle = CCCC[C@H](N)C(=O)O
Measured Attribute: Average EC50, pSTAT5 assay in NK cells (nM)

INSERT INTO measurements (binder, measure_unit, result) VALUES
  ('CMP-318, Matriptase cleaved molecule (ligand, lactam N-32; also: treated with matriptase, cleavage site not given here) SGRVANLVGAPTSSSTKKTQLQLEHLLLDLQEILNGINNYKNPKLTR[Nle]L[hSer][Yn3(5)]KF[Ygp(5)][Nle]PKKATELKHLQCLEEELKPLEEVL[hSer]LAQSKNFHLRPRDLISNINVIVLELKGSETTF[hSer]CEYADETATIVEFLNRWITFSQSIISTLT', 'nM', 33.7),
  ('CMP-321, MMP2 cleaved molecule (ligand, lactam N-32; also: treated with MMP2 (cleavage site not given here)) SGRVQPLVDAPTSSSTKKTQLQLEHLLLDLQEILNGINNYKNPKLTR[Nle]L[hSer][Yn3(5)]KF[Ygp(5)][Nle]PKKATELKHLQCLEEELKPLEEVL[hSer]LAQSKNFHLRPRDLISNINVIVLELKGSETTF[hSer]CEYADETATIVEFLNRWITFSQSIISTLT', 'nM', 2.94),
  ('CMP-321, Matriptase cleaved molecule (ligand, lactam N-32; also: treated with matriptase (cleavage site not given here)) SGRVQPLVDAPTSSSTKKTQLQLEHLLLDLQEILNGINNYKNPKLTR[Nle]L[hSer][Yn3(5)]KF[Ygp(5)][Nle]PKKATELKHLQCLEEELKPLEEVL[hSer]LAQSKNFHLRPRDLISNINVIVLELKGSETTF[hSer]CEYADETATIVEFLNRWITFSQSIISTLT', 'nM', 65.2),
  ('CMP-319 (ligand, lactam N-33) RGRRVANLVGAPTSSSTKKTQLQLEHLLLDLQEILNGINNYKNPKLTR[Nle]L[hSer][Yn3(5)]KF[Ygp(5)][Nle]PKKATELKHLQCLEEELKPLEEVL[hSer]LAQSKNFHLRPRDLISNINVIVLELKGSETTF[hSer]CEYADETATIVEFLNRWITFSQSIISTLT', 'nM', 7.72),
  ('CMP-318, MMP2 cleaved molecule (ligand, not fully specified (bridges)) SGRVANLVGAPTSSSTKKTQLQLEHLLLDLQEILNGINNYKNPKLTR[Nle]L[hSer][Yn3]KF[Ygp][Nle]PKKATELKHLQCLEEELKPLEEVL[hSer]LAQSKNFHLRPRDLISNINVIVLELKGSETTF[hSer]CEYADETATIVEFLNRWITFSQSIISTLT', 'nM', 0.388);
